Tested on: 501Mel-GP cells (Dabrafenib-resistant)
Test: Kinase inhibitor library screening, PrestoBlue cell viability, 1 or 10 μM, 72 h
Conditions: 501Mel GP, 1μΜ, 72 h
Measured cell viability (kinase inhibitor library screening) values are reported for all entries that follow.
State just the number; it will be interpreted in %.

Previously resolved entries follow.
INSERT INTO assay_data (molecule, unit, experimental_result) VALUES
  ('CC(C)NC[C@@H](C(=O)N1CCN(c2ncnc3c2[C@H](C)C[C@H]3O)CC1)c1ccc(Cl)cc1 [GDC-0068]', '%', 92.7),
  ('COc1ccc2c(Oc3ccc(NC(=O)c4c(C)n(CC(C)(C)O)n(-c5ccccc5)c4=O)nc3)ccnc2c1 [AMG458]', '%', 92.9),
  ('Nc1nc(Nc2ccc(S(N)(=O)=O)cc2)nn1C(=O)c1c(F)cccc1F [JNJ-7706621]', '%', 110.0),
  ('CCCCOc1c(C(=O)c2c(F)cc(C)cc2F)c[nH]c2nncc1-2 [BMS-265246]', '%', 94.2),
  ('O=C(Nc1c[nH]nc1-c1nc2ccc(CN3CCOCC3)cc2[nH]1)NC1CC1 [AT9283]', '%', 72.2);

Inquiry: Any idea what its cell viability (kinase inhibitor library screening) is? The molecule is OCCn1cc(-c2cnc3nnn(Cc4ccc5ncccc5c4)c3n2)cn1 [PF-04217903]
Reply text: 89.0

Inquiry: Requested read-out: cell viability (kinase inhibitor library screening). Entry: CNC(=O)c1cc(Oc2ccc(NC(=O)Nc3cc(C(C)(C)C)nn3-c3ccc4ncccc4c3)c(F)c2)ccn1 [DCC-2036 (Rebastinib)]
Reply text: 100.3

Inquiry: What cell viability (kinase inhibitor library screening) value was documented for this molecule, Cc1nc(N)sc1-c1ccnc(Nc2ccc(N3CCOCC3)cc2)n1 [CYC116] ?
Reply text: 104.5

---

Tested on: A375 cells (parental)
Test: Kinase inhibitor library screening, PrestoBlue cell viability, 1 or 10 μM, 72 h
Conditions: A375 Parental, 10μΜ, 72 h; in %
The following molecules are listed with their measured cell viability, A375 Parental, 10μΜ values.
Lab note: record just the number, no unit beside it.

Example molecules with recorded cell viability, A375 Parental, 10μΜ:
INSERT INTO assay_data (molecule, outcome_measure, experimental_result) VALUES
  ('CC(C)(C)c1cc(/C=C(\C#N)C(N)=S)cc(C(C)(C)C)c1O', 'cell viability, A375 Parental, 10μΜ', 21.0),
  ('COc1cc2ncnc(Nc3ccc(F)c(Cl)c3)c2cc1NC(=O)/C=C/CN1CCCCC1', 'cell viability, A375 Parental, 10μΜ', 3.4),
  ('C=CC(=O)Nc1cccc(Oc2nc(Nc3ccc(N4CCN(C)CC4)cc3)ncc2Cl)c1', 'cell viability, A375 Parental, 10μΜ', 30.7);

Inquiry: Reported cell viability, A375 Parental, 10μΜ, molecule C=CC(=O)Nc1cccc(Sc2nc(Nc3ccc(N4CCN(C)CC4)cc3)ncc2Cl)c1 : ____
Reply text: 1.4

Inquiry: Which cell viability, A375 Parental, 10μΜ value is on record for CNC(=O)c1c(F)cccc1Nc1nc(Nc2cc3c(cc2OC)CCN3C(=O)CN(C)C)nc2[nH]ccc12 [GSK1838705A, reference compound] ?
Reply text: 12.8

Inquiry: Can you share its cell viability, A375 Parental, 10μΜ? I mean this molecule: CC(=O)Nc1cccc(-n2c(=O)n(C3CC3)c(=O)c3c(Nc4ccc(I)cc4F)n(C)c(=O)c(C)c32)c1
Reply text: 21.8

Inquiry: Entry CN(C)Cc1cccc(N/C(=C2\C(=O)Nc3cc(C(=O)N(C)C)ccc32)c2ccccc2)c1 : reported cell viability, A375 Parental, 10μΜ = ?
Reply text: 86.5

---

Listed here are compounds together with their documented cell viability (kinase inhibitor library screening).
Tested on: IGR37-XP cells (Vemurafenib-resistant)
Assay: Kinase inhibitor library screening, PrestoBlue cell viability, 1 or 10 μM, 72 h
Settings: IGR37 XP, 1μΜ; in %
# respond with the number and nothing more

Example results:
INSERT INTO results (compound, target_desc, experimental_result) VALUES
  ('COc1cc(Nc2ncc(F)c(Nc3ccc4c(n3)NC(=O)C(C)(C)O4)n2)cc(OC)c1OC [R406(free base)]', 'IGR37-XP cells (Vemurafenib-resistant)', 92.0),
  ('Cc1cc(C)c(/C=C2\C(=O)Nc3ccccc32)[nH]1 [Semaxanib (SU5416)]', 'IGR37-XP cells (Vemurafenib-resistant)', 100.1),
  ('COc1cc(Nc2ncc(F)c(Nc3ccc4c(n3)N(COP(=O)([O-])[O-])C(=O)C(C)(C)O4)n2)cc(OC)c1OC.[Na+].[Na+]', 'IGR37-XP cells (Vemurafenib-resistant)', 94.1);

// below: cell viability (kinase inhibitor library screening) requested for another compound
Inquiry: Name the recorded cell viability (kinase inhibitor library screening) for c1ccc2c(-c3cnn4cc(-c5ccc(N6CCNCC6)cc5)cnc34)ccnc2c1 [LDN193189] .
Reply text: 103.7

---

Tested on: 501Mel cells (parental)
Test: Kinase inhibitor library screening, PrestoBlue cell viability, 1 or 10 μM, 72 h
Conditions: Homo sapiens, 72 h, read-out: cell viability, 501Mel Parental, 1μΜ
This section presents compounds with their documented viability at 1 µM values.
Respond with the bare value in %.

See these solved cases before continuing.
INSERT INTO measurements (compound, target_desc, experimental_result) VALUES
  ('C[C@]1(O)C[C@@H](c2nc(-c3ccc4ccc(-c5ccccc5)nc4c3)c3c(N)nccn32)C1 [Linsitinib (OSI-906)]', '501Mel cells (parental)', 70.7),
  ('O=C(Nc1cc(C(F)(F)F)cc(C(F)(F)F)c1)c1cc(Cl)ccc1O [IMD 0354, reference compound]', '501Mel cells (parental)', 34.2),
  ('C[C@@H]1COC(Nc2ccc3ncnc(Nc4ccc(OCc5nccs5)c(Cl)c4)c3c2)=N1 [ARRY334543]', '501Mel cells (parental)', 97.9);

Inquiry: Given the entry O=C(NC[C@H](O)CO)c1ccncc1Nc1ccc(I)cc1F [AS703026] , what viability at 1 µM was observed with 501Mel cells (parental)?
Reply text: 50.1

---

Tested on: 501Mel cells (parental)
Assay: Kinase inhibitor library screening, PrestoBlue cell viability, 1 or 10 μM, 72 h
Settings: 501Mel Parental, 1μΜ, 72 h
Checkbox rule: cell viability (kinase inhibitor library screening) lower than 90% = MET; cell viability (kinase inhibitor library screening) not lower than 90% = NOT MET.

Inquiry: Is cell viability (kinase inhibitor library screening) strictly under 90% for the entry Cc1cc(Nc2cc(N3CCN(C)CC3)nc(Sc3ccc(NC(=O)C4CC4)cc3)n2)n[nH]1 ?
Reply text: MET

Inquiry: # strict comparison: is reported cell viability (kinase inhibitor library screening) < 90%? input = Cn1cc(-c2ccc3ncc(Cc4ccc5ncccc5c4)n3n2)cn1
Reply text: NOT MET

Inquiry: # strict comparison: is reported cell viability (kinase inhibitor library screening) < 90%? input = CN(C[C@@H]1COCCO1)S(=O)(=O)Nc1ccc2ccc3ncc(-c4cnn(C)c4)cc3c(=O)c2c1
Reply text: NOT MET

Inquiry: Quick check: cell viability (kinase inhibitor library screening) of COCCNCc1ccc(-c2cc3nccc(Oc4ccc(NC(=S)NC(=O)Cc5ccc(F)cc5)cc4F)c3s2)nc1 under 90%?
Reply text: NOT MET

Inquiry: Does this compound meet the criterion cell viability (kinase inhibitor library screening) < 90%? Cc1ncc(-c2ccnc(Nc3ccc(S(C)(=O)=O)cc3)n2)n1C(C)C
Reply text: NOT MET

Inquiry: Dear reviewer, please state whether CCn1cc(-c2ccnc3[nH]c(-c4cccc(CN(C)C)c4)cc23)c(-c2ccc(NC(=O)N(C)C)cc2)n1 has cell viability (kinase inhibitor library screening) strictly beneath 90%.
Reply text: NOT MET

Inquiry: Dear reviewer, please state whether O=c1[nH]c2ccc(Cl)cc2c(N[C@@H]2CN3CCC2CC3)c1-c1nc2ccccc2[nH]1 [CHIR-124, reference compound] has cell viability (kinase inhibitor library screening) strictly beneath 90%.
Reply text: MET

---

Tested on: 501Mel cells (parental)
Assay: Kinase inhibitor library screening, PrestoBlue cell viability, 1 or 10 μM, 72 h
Settings: 501Mel Parental; 10μΜ; 72 h; in %
outcome measure: Cell viability in kinase inhibitor library screening, 501Mel Parental, 10μΜ

Illustrative cases are given below, each with its answer.
INSERT INTO assay_data (compound, experimental_result) VALUES
  ('CCCS(=O)(=O)Nc1ccc(F)c(C(=O)c2c[nH]c3ncc(-c4ccc(Cl)cc4)cc23)c1F', 61.7),
  ('Cc1cc(C(C)Nc2ccccc2)c2nc(N3CCOCC3)cc(=O)n2c1 (centres unmarked)', 97.1),
  ('FC(F)c1nc2ccccc2n1-c1nc(N2CCOCC2)nc(N2CCOCC2)n1', 8.9),
  ('Cn1cc(C2=C(c3cn(C4CCN(Cc5ccccn5)CC4)c4ccccc34)C(=O)NC2=O)c2ccccc21', 63.8),
  ('O=C(O)c1ccc2c(c1)nc(Nc1cccc(Cl)c1)c1ccncc12 [cx-4945 (Silmitasertib)]', 52.6),
  ('COC(=O)Nc1ccc(-c2nc(N3CCOCC3)c3cnn(C4CCN(Cc5cccnc5)CC4)c3n2)cc1', 9.6),
  ('OCCn1cc(-c2ccc3c(c2)CC/C3=N\O)c(-c2ccncc2)n1', 63.5);

Inquiry: For the compound shown here, Nc1nc(N)c2nc(-c3cccc(O)c3)cnc2n1 , give the reported Cell viability in kinase inhibitor library screening, 501Mel Parental, 10μΜ.
Reply text: 56.1
